tested on: NCI-H23 lung; assay: NCI tumour cell line growth inhibition, 48 h
readout-type: TGI

For orientation, consider the following solved cases.
compound	tgt	readout-type	result
O=C(O)CC12C3C4C5C3C1C5C42 (stereo unspecified)	NCI-H23 lung	TGI	> 100 µM
COc1cc2cc(C(=O)Nc3cc(N)c4ccccc4c3CCCl)[nH]c2c(OC)c1OC	NCI-H23 lung	TGI	0.264 µM
CCn1c(O)c(C=N)c(=O)n(CC)c1=O	NCI-H23 lung	TGI	> 100 µM
CNn1c(C)n[nH]c1=O	NCI-H23 lung	TGI	> 100 µM

Given "Cc1cc(I)cc(CN(C)CCN2CCCC2)c1O" , state its recorded TGI. > 100 µM

Given "Cc1cc2cc3c(C)cc(=O)oc3c(C)c2o1" , state its recorded TGI. > 100 µM

Given O=C1NC2CCC(C2)C1c1ccccc1 (stereo unspecified) , state its recorded TGI. > 100 µM

Given O=C1c2ccccc2C2(O)NC(=S)N(c3ccccc3)C12O (stereo unspecified) , state its recorded TGI. > 100 µM

Given Cc1ccc(C(=O)C(Cl)C(Cl)c2ccc(C)cc2)cc1 (stereo unspecified) , state its recorded TGI. 23.9 µM

Given "O=C([CH-]C(=O)c1ccccc1)c1ccccc1.O=C([CH-]C(=O)c1ccccc1)c1ccccc1.O=C([CH-]C(=O)c1ccccc1)c1ccccc1.[OH3+].[Y+3]" , state its recorded TGI. 18.9 µM

Given "O=C1c2cc([N+](=O)[O-])ccc2-c2cccc(F)c21" , state its recorded TGI. > 100 µM

###

test system: OVCAR-3 ovarian; assay: NCI tumour cell line growth inhibition, 48 h
readout-type: TGI (µM)
Reply with just the number (in µM).

For orientation, consider the following solved cases.
compound	scale-unit	result
NC(=O)C(c1ccccc1)N1OC2C(=O)N(c3cccc4ccccc34)C(=O)C2C1c1c2ccccc2c(Cl)c2ccccc12 (centres undefined)	µM	17.5
O=C(N/N=C/c1ccccc1Cl)c1ccccc1Nc1ccnc(C(F)(F)F)c1	µM	3.68
COc1cc(C(c2cc3c(cc2O)OCO3)N2CCCCC2)cc(OC)c1OC (centres undefined)	µM	26.9

// fetch OVCAR-3 ovarian TGI for CC1(C)CCC[C@@]2(C)C1CC[C@H]1CC(O)C3(C)CCC12C3 (some centres undefined) 30.7

// fetch OVCAR-3 ovarian TGI for CCCCCCCCC/C=C1\CC(CO)(COC(=O)C2CCCCC2)OC1=O (centres undefined) 33.4

###

Recorded TGI, one value per entry.
system: NCI-H460 lung; test: NCI tumour cell line growth inhibition, 48 h

compound	TGI
O=C(CC12CC3CC(CC(C3)C1)C2)NCCOCCOCCOCCNC(=O)c1cc2c(o1)C(=O)c1ccccc1C2=O	1.44 µM
COC(=O)C1=C(\c2ccccc2)c2ccccc2C(=O)N(C2CCCCC2)/C=C\1	65.7 µM
COC(=O)C12CC(c3ccccc31)C1C(=O)OC(=O)C12 (stereo unspecified)	> 100 µM
Cc1ccc(/C=C/C(=O)c2sc(-c3cccnc3)nc2C)cc1	> 100 µM
O=c1[nH]ccc2nc(N3CCC(O)CC3)nc(Nc3cccc(C(F)(F)F)c3)c12	15 µM
OC(C/C(=N\N1CCCCC1)c1cccs1)(C(F)(F)F)C(F)(F)F	> 10 µM

Given "O=C1c2cc([N+](=O)[O-])ccc2-c2cccc(F)c21" , state its recorded TGI. > 100 µM

Given CC(C)(C)[Si](C)(C)OCC1CCC(n2cnc3c(N)ncnc32)O1 (stereo unspecified) , state its recorded TGI. > 100 µM

Given "O=c1c2cccnc2cc(-c2ccccc2)n1CCO" , state its recorded TGI. > 100 µM

Given "Nc1nc(=S)[nH]c(C(=O)Nc2ccc(Cl)c(Cl)c2)c1-c1ccc(Cl)cc1" , state its recorded TGI. > 100 µM

Given "c1cn2cc(-c3ccc4ncn(C5CCCCC5)c4c3)nc(-c3ccc4c(c3)ncn4C3CCCCC3)c2n1" , state its recorded TGI. 4.02 µM

###

test system: COLO 205 colon; assay: NCI tumour cell line growth inhibition, 48 h; in the data active = GI50 below about 0.43 µM; inactive = the rest
Write down the outcome that applies. Available outcomes: active, inactive

Known results for compounds:
compound	tgt	group
COc1ccc(-c2nc3ncccn3c2/C=C/C(=O)c2cc(OC)c(OC)c(OC)c2)cc1	COLO 205 colon	inactive
CC[Si](CC)(CC)OC[C@]1([C@@H]2COC(C)(C)O2)CC=CC(=O)O1	COLO 205 colon	inactive
COc1cc2cc(C(=O)Nc3cc(N)c4ccccc4c3CCCl)[nH]c2c(OC)c1OC	COLO 205 colon	active
Cc1cc(N2CCCC2)nc(NC2CCCC(Nc3ccnc4cc(Cl)ccc34)C2)n1 (stereo not drawn)	COLO 205 colon	inactive
NC(=N\N=C/c1cccc([N+](=O)[O-])c1)/C(N)=N\N=C/c1cccc([N+](=O)[O-])c1	COLO 205 colon	inactive

Query: recorded result category for "CCCN1CCN(c2ccc3nc(-c4ccc5nc(-c6cc(OC)ccc6OC)[nH]c5c4)[nH]c3c2)CC1" in this test inactive

Query: recorded result category for "O=C([CH-]C(=O)c1ccccc1)c1ccccc1.O=C([CH-]C(=O)c1ccccc1)c1ccccc1.O=C([CH-]C(=O)c1ccccc1)c1ccccc1.[OH3+].[Y+3]" in this test inactive

Query: recorded result category for "COc1ccc(-c2ccc(/C=N/n3c(COc4ccc(Cl)cc4Cl)nn(CN4CCN(C)CC4)c3=S)o2)c([N+](=O)[O-])c1" in this test inactive

###

Recorded GI50, one value per entry.
tested on: T-47D breast; test: NCI tumour cell line growth inhibition, 48 h

For orientation, consider the following solved cases.
compound	GI50
Cc1cc(N2CCCC2)nc(NC2CCCC(Nc3ccnc4cc(Cl)ccc34)C2)n1 (stereo not given)	1.71 µM
C=CCN1C=CC(=O)[C@H](O[Si](C)(C)C(C)(C)C)[C@@H]1/C=C/c1ccccc1	4.04 µM
O=c1[nH]ccc2nc(N3CCC(O)CC3)nc(Nc3cccc(C(F)(F)F)c3)c12	3.11 µM

// fetch T-47D breast GI50 for "O=C(CC12CC3CC(CC(C3)C1)C2)NCCOCCOCCOCCNC(=O)c1cc2c(o1)C(=O)c1ccccc1C2=O" 1.74 µM

// fetch T-47D breast GI50 for "C[C@@H]1N=C(c2ccc(Br)cc2)Nc2nc3ccccn3c2C1=O" 4.62 µM

###

system: RXF 393 renal; assay: NCI tumour cell line growth inhibition, 48 h
readout-type: TGI

For orientation, consider the following solved cases.
compound	TGI
C=CCN1C=CC(=O)[C@H](O[Si](C)(C)C(C)(C)C)[C@@H]1/C=C/c1ccccc1	46.1 µM
COc1cc(C2C3=C(COC3=O)Oc3cc4c(cc32)OCO4)ccc1OC(C)=O (stereo not given)	> 100 µM
COc1ccc2c(c1)OC1=C(C(=O)OC1)C2c1cc(OC)c(OC)c(OC)c1 (stereo not given)	0.735 µM
CC(=O)OC1COC(n2c(-c3ccc(Cl)cc3)cc(-c3ccccc3)c(C#N)c2=S)C(OC(C)=O)C1OC(C)=O (stereo not given)	26.9 µM

Given "O=C1c2ccccc2-c2ccc(N=Nc3c(O)ccc4ccccc34)cc21" , state its recorded TGI. > 100 µM

###

test system: NCI-H460 lung; assay: NCI tumour cell line growth inhibition, 48 h
Recorded TGI, one value per entry.

compound	TGI
O=c1[nH]c2c3ccccc3ccc2c2cc3c(cc12)OCO3	> 100 µM
CC(=O)N/C(=C\c1cccc([N+](=O)[O-])c1)c1nc2c3c(ccc2[nH]1)C(=O)c1ccccc1C3=O	> 100 µM

Given C1CCN(C2OC3C(COC3N3CCCCC3)OC2OC2CCO[C@@H]2N2CCCCC2)CC1 (some centres not stated) , state its recorded TGI. > 100 µM

Given CC1=CC(=O)C(=O)C2=C1OC1(C2)C(C)CCC2C3(C)CCC(O)C(C)(C)C3CCC21C (configuration not stated) , state its recorded TGI. 35.1 µM

Given "N#Cc1c(Cl)/c(=C/O)c(=O)n2c1nc1ccccc12" , state its recorded TGI. > 100 µM

Given "CN(/N=C/c1ccccn1)C1=NCCCCN1" , state its recorded TGI. > 100 µM

Given "C[C@H]1C[C@H](C)c2ccccc2N(C)C1=Nc1ccccc1" , state its recorded TGI. 64.4 µM

Given "Fc1ccccc1-c1nn2c(C34CC5CC(CC(C5)C3)C4)nnc2s1" , state its recorded TGI. > 100 µM

Given C=CCN(CC=C)C(=O)c1cc(C)nc2c1c(=O)n(-c1ccccc1)c(=O)n2CC(O)CN1CCN(c2ncccn2)CC1 (configuration not stated) , state its recorded TGI. > 100 µM

Given "Cc1cc(-c2nnc(N)nc2-c2ccc(F)cc2)cc(Cl)n1" , state its recorded TGI. > 100 µM

Given "O=C(O)c1ccc(Nc2nc3ccccc3nc2-c2cccs2)cc1" , state its recorded TGI. > 100 µM

###

Recorded GI50, one value per entry.
tested on: RXF 393 renal; assay: NCI tumour cell line growth inhibition, 48 h

For orientation, consider the following solved cases.
O=C(Nc1cc[c]([Sb](=[O])([OH])[OH])cc1)c1ccccc1 > 100 µM
Cc1cc(N2CCN(c3ccnc4cc(Cl)ccc34)CC2)nc(NC2CCCCC2)n1 1.71 µM

Given "COc1ccc(-c2ccc(/C=N/n3c(COc4ccc(Cl)cc4Cl)nn(CN4CCN(C)CC4)c3=S)o2)c([N+](=O)[O-])c1" , state its recorded GI50. 6.86 µM

Given "CC1=C2C[C@H]3[C@@H](CC=C4C[C@@H](O)CC[C@@]43C)[C@@H]2CC[C@]12O[C@@H]1C[C@H](C)CN[C@H]1[C@H]2C" , state its recorded GI50. 6.01 µM
